# target or test system: ENT3 (equilibrative nucleoside transporter 3), ENT3-AA construct (Homo sapiens, UniProt Q9BZD2, L31A/L32A)
# Construct: ENT3-AA: full-length ENT3 redirected to the plasma membrane, dileucine L31L32 replaced with A31A32
# Sequence (Q9BZD2 whole entry L31A/L32A): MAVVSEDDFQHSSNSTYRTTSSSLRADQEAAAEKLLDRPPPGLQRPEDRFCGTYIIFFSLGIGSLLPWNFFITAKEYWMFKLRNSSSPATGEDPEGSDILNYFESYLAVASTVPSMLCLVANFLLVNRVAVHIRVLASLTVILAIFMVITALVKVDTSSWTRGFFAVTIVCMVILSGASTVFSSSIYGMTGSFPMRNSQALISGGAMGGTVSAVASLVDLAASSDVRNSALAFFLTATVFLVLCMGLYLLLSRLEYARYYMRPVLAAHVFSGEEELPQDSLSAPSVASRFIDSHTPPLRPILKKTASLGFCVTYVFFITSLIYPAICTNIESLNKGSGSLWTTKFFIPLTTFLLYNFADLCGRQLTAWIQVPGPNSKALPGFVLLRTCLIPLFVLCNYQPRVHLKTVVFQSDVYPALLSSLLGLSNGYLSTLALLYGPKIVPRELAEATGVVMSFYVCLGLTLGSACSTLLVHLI
# experimental protocol: inhibition of […]urate ([…]) uptake in HEK293 cells transiently expressing ENT3-AA, pH […]
pIC50: −log10 of the molar value.
recorded metric: pIC50

P. O=[N+]([O-])c1ccc(CSc2ncnc3c2ncn3C2OC(CO)C(O)C2O)cc1 (centres unmarked) [nitrobenzylthioinosine]
Q. OCCN(CCO)c1nc(N2CCCCC2)c2nc(N(CCO)CCO)nc(N3CCCCC3)c2n1 [dipyridamole]
Ask | Min pIC50? P | Q Kindly give the label for the entry you pick.
Reply | P
(P: 4.66, Q: 5.11)
